target: rat brain N-type calcium channel subunits (α1B+α2δ+β1b cDNA subunits) (Rattus norvegicus); construct: expressed in transfected cells; host or cells: HEK 293; experiment: N-type calcium channel block, whole cell patch clamp in transfected HEK 293 cells; type: cell-based; settings: low frequency stimulation 0.067 Hz (tonic block), holding potential −80 mV to +10 mV, read-out: IC50 @ 0.067 Hz
Sequence (Q02294 whole entry): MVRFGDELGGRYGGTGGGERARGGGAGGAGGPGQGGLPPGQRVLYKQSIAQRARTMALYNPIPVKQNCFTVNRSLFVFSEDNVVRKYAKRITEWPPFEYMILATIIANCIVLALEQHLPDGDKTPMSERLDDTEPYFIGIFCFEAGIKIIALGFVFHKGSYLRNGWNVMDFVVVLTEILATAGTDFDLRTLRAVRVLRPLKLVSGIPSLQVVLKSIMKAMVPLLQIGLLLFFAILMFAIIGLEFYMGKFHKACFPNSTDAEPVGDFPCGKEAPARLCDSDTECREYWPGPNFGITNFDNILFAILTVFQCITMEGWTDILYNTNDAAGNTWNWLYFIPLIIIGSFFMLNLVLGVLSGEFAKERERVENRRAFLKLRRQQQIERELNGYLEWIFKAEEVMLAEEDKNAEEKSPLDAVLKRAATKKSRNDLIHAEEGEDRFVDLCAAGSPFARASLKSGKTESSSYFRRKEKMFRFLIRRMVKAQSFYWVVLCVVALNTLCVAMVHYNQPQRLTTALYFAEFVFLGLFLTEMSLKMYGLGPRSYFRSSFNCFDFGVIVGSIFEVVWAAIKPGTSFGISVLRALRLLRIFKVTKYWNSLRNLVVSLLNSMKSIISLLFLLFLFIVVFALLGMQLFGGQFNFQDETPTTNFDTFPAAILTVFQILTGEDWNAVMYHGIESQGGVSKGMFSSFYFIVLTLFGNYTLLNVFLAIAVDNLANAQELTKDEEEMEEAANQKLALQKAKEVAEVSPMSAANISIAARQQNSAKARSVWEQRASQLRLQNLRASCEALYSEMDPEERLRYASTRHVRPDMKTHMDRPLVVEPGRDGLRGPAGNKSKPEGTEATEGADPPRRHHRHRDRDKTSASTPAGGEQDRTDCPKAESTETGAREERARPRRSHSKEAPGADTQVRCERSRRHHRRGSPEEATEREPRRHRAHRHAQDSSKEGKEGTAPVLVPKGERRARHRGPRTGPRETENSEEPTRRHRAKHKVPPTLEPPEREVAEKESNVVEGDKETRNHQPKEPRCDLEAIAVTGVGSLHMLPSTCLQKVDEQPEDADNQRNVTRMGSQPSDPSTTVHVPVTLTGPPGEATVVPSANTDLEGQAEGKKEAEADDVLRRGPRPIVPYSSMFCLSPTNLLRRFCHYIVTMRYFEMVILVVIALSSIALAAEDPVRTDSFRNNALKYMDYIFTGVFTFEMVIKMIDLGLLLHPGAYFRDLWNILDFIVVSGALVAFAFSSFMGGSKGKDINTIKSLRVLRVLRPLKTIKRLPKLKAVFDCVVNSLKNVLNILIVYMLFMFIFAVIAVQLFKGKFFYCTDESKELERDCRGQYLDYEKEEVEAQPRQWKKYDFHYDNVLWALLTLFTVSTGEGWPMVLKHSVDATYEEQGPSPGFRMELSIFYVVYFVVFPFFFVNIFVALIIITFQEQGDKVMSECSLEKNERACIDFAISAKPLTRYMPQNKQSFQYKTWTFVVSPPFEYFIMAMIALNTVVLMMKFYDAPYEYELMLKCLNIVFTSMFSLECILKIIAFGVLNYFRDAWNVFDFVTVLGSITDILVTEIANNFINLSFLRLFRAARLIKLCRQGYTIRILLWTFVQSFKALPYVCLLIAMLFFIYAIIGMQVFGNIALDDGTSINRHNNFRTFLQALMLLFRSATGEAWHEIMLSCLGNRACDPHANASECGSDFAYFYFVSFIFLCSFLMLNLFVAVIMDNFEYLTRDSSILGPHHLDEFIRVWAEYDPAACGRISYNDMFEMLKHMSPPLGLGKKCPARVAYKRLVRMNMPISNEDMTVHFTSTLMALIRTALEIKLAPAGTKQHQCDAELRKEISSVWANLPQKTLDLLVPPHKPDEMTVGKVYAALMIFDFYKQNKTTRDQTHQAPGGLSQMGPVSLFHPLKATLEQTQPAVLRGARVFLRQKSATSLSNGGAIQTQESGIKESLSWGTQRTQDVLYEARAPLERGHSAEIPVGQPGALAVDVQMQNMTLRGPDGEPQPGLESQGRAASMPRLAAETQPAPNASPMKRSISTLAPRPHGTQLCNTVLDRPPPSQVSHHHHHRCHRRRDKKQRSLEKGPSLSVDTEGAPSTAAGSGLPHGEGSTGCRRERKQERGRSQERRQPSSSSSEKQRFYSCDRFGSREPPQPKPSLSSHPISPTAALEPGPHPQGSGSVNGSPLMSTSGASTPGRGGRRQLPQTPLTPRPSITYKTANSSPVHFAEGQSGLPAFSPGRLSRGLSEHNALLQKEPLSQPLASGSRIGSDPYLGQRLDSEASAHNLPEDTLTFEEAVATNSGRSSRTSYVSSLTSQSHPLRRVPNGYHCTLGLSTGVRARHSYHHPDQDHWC
ENDPOINT NAME: IC50 (nM)

Before answering, review these 6 worked examples.
MOLECULE	IC50 (nM)
c1ccc(-c2cc(CN3CCN(C(c4ccccc4)c4ccccc4)CC3)on2)cc1	1700
Cc1ccc(C(c2ccccc2)N2CCN(Cc3cc(-c4ccccc4)no3)CC2)c(C)c1 (stereo not drawn)	1070
O=C(c1cc(-c2ccccc2F)no1)N1CCN(C(c2ccccc2)c2ccc(Cl)cc2Cl)CC1 (stereo not drawn)	6470
Cc1ccc(C(c2ccccc2)N2CCN(Cc3cc(-c4ccccc4F)no3)CC2)c(C)c1 (stereo not drawn)	950
Fc1ccccc1-c1cc(CN2CCN(C(c3ccccc3)c3ccccc3)CC2)on1	3400
O=C(c1cc(-c2ccccc2F)no1)N1CCN(C(c2ccccc2)c2ccccc2)CC1	800

a = O=C(c1cc(-c2ccccc2)no1)N1CCN(C(c2ccccc2)c2ccccc2)CC1
b = O=C(CC(c1ccccc1)c1ccccc1)N1CCN(Cc2cc(-c3ccccc3)no2)CC1
Q: Short answer wanted: higher IC50, a or b ? State your choice using its label.
Ans: b

P = COc1ccccc1-c1cc(CN2CCN(C(=O)CC(c3ccccc3)c3ccccc3)CC2)on1
Q = Cc1ccc(C(c2ccccc2)N2CCN(C(=O)c3cc(-c4ccccc4F)no3)CC2)c(C)c1 (stereo not drawn)
R = Fc1ccccc1-c1cc(CN2CCN(C(c3ccccc3)c3ccc(Cl)cc3Cl)CC2)on1 (stereo not drawn)
S = Clc1ccc(C(c2ccccc2)N2CCN(Cc3cc(-c4ccccc4)no3)CC2)c(Cl)c1 (stereo not drawn)
Q: Place the items in sequence of falling IC50. Put the labels in the requested order and write them down.
Ans: S, R, Q, P
(S: 22200 nM, R: 3150 nM, Q: 2180 nM, P: 600 nM)

I = COc1ccccc1-c1cc(CN2CCN(C(c3ccccc3)c3ccccc3)CC2)on1
II = COc1ccccc1-c1cc(C(=O)N2CCN(C(c3ccccc3)c3ccccc3)CC2)on1
Q: Short answer wanted: higher IC50, I or II ? State your choice using its label.
Ans: II
(II: 2990 nM, I: 680 nM)

The measured values listed here are drawn from patent US20090286806A1.
